// inhibition at 100 µM lookup, one value per entry
# target_or_test_system: PIN8 (Arabidopsis thaliana, UniProt Q9LFP6)
# Construct: made in house
# procedure_summary: SSM electrophysiology, KD by inhibition of the NPA binding current
# protocol_conditions: 100 µM substrate; 100 µM NPA; individual sensors; read-out: Rel. Inhibition of NPA peak currents
A number alone suffices; assume %.

Example results:
O=C(O)COc1ccc(Cl)cc1: 24.7
O=C(O)CCc1ccc(Cl)cc1Cl: 63.6
Cc1ccccc1OCC(=O)O: 27.5
Cc1ccc(OCC(=O)O)cc1: 12.1
O=C(O)COc1ccccc1Cl: 57

// switching to the query compound
Lab note: measured inhibition at 100 µM of "Cc1ccc(OCC(=O)O)c(C)c1" was 37

====

# target_or_test_system: PIN8 (Arabidopsis thaliana)
# Construct: made in house
# procedure_summary: SSM electrophysiology, KD by inhibition of the NPA binding current
# protocol_conditions: read-out: Rel. Inhibition of NPA peak currents, 250 µM substrate; 100 µM NPA; individual sensors
# Experimental: SSM, using a SURFE2R N1 from Nanion Technologies, was conducted as described. […] Protein was added to liposomes to a calculated lipid-to-protein ratio (LPR) of 10 unless stated otherwise. […] Current response is recorded throughout the entire 3 s. […] On each sensor each measurement consists of three technical replicates where the mean is calculated. KD values were determined as described previously. […]
readout_name: inhibition at 250 µM (%)
Quick note: give the figure in %, leave out the unit.

Example results:
O=C(O)Cc1c[nH]c2ccccc12: 84.7
O=C(O)COc1ccc(Cl)cc1Cl: 83.2
O=C(O)COc1cc(Cl)c(Cl)cc1Cl: 91
Cc1cc(Cl)ccc1OCC(=O)O: 65.4

# input for lookup
// field: inhibition at 250 µM; key: "O=C(O)COc1ccccc1" ; value = 30.3

====

# target_or_test_system: PIN8 Y150A (Arabidopsis thaliana, UniProt Q9LFP6, Y150A)
# Construct: made in house
# Type: biochemical
# protocol_conditions: PIN8 Y150A; Michaelis–Menten fit; read-out: EC50 of peak current response
Attribute: EC50
Quick reminder: number only, in µM, skip the unit.

Some entries whose results are on file:
O=C(O)Cc1c[nH]c2ccccc12 [IAA, indole-3-acetic acid]: 1210
O=C(O)COc1ccc(Cl)cc1 [4-CPA, 4-chlorophenoxyacetic acid]: 2620

Documented EC50 of O=C(O)COc1ccc(Cl)cc1Cl [2,4-D, 2,4-dichlorophenoxyacetic acid] : 684

====

# target_or_test_system: PIN8 (Arabidopsis thaliana, UniProt Q9LFP6)
# Construct: made in house
# procedure_summary: SSM electrophysiology, KD by inhibition of the NPA binding current
# protocol_conditions: 250 µM substrate; 100 µM NPA; individual sensors; read-out: Rel. Inhibition of NPA peak currents
readout_name: inhibition at 250 µM (%)
Entry rule: numbers only, all in %.

# compound "Cc1ccc(OCC(=O)O)cc1" ; its inhibition at 250 µM = 25.7

inhibition at 250 µM in this record for "Cc1ccc(OCC(=O)O)c(C)c1" : 61.3

Measured inhibition at 250 µM, "Cc1ccccc1OCC(=O)O" : 53.9

inhibition at 250 µM measured on "O=C(O)CCc1ccc(Cl)cc1Cl" = 77.8

====

# target_or_test_system: PIN8 Y150F (Arabidopsis thaliana, UniProt Q9LFP6, Y150F)
# protocol_conditions: PIN8 Y150F; Michaelis–Menten fit; read-out: EC50 of peak current response
# Procedure: SSM, using a SURFE2R N1 from Nanion Technologies, was conducted as described. […] Protein was added to liposomes to a calculated lipid-to-protein ratio (LPR) of 10 unless stated otherwise. […] Current response is recorded throughout the entire 3 s. […] On each sensor each measurement consists of three technical replicates where the mean is calculated. KD values were determined as described previously. […]
readout_name: EC50 (µM)
Please give a number only; it is taken to be in µM.

Kindly note the recorded EC50 for O=C(O)Cc1c[nH]c2ccccc12 [IAA, indole-3-acetic acid] , which is 452

What the record says about O=C(O)COc1ccc(Cl)cc1Cl [2,4-D, 2,4-dichlorophenoxyacetic acid] : EC50 is 816

Query O=C(O)COc1ccc(Cl)cc1 [4-CPA, 4-chlorophenoxyacetic acid] yields EC50 of 710

====

# target_or_test_system: PIN8 (Arabidopsis thaliana, UniProt Q9LFP6)
# Construct: made in house
# Sequence (Q9LFP6 1-367): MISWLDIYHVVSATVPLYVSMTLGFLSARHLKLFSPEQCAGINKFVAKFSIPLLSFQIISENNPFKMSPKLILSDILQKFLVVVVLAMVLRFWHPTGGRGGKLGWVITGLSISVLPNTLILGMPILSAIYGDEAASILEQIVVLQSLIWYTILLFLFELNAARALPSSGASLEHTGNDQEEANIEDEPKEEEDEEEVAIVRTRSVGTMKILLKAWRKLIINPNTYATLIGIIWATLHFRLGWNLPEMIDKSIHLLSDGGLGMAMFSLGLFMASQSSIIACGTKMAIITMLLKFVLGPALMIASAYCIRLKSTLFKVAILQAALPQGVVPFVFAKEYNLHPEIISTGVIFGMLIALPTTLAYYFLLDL
# procedure_summary: SSM electrophysiology, KD by inhibition of the NPA binding current
# protocol_conditions: read-out: Rel. Inhibition of NPA peak currents, 100 µM substrate; 100 µM NPA; individual sensors
# Protocol: SSM, using a SURFE2R N1 from Nanion Technologies, was conducted as described. […] Protein was added to liposomes to a calculated lipid-to-protein ratio (LPR) of 10 unless stated otherwise. […] Current response is recorded throughout the entire 3 s. […] On each sensor each measurement consists of three technical replicates where the mean is calculated. KD values were determined as described previously. […]
readout_name: inhibition at 100 µM (%)
Value expressed in %; do not type the unit.

Below, each entry is followed by its recorded inhibition at 100 µM result.
O=C(O)COc1ccc(Cl)cc1Cl: 65.6
O=C(O)COc1cc(Cl)c(Cl)cc1Cl: 87.3
Cc1cc(Cl)ccc1OCC(=O)O: 41.7

For reference, reported inhibition at 100 µM for "O=C(O)Cc1c[nH]c2ccccc12" stands at 77.9

====

# target_or_test_system: PIN8 (Arabidopsis thaliana)
# Construct: made in house
# procedure_summary: SSM electrophysiology, KD by inhibition of the NPA binding current
# protocol_conditions: read-out: Rel. Inhibition of NPA peak currents, 50 µM substrate; 100 µM NPA; individual sensors
A collection of compounds and their measured inhibition at 50 µM
Please state the figure in %; there is no need to write the unit.

# example entries with known answers
Cc1cc(Cl)ccc1OCC(=O)O: 25.1
O=C(O)COc1ccc(Cl)cc1Cl: 46.2
O=C(O)COc1cc(Cl)c(Cl)cc1Cl: 78.2

Proceeding to the next compound to report its inhibition at 50 µM.
Reported inhibition at 50 µM ( "O=C(O)Cc1c[nH]c2ccccc12" ) = 57

====

# target_or_test_system: PIN8 (Arabidopsis thaliana)
# Construct: made in house
# Sequence (Q9LFP6 1-367): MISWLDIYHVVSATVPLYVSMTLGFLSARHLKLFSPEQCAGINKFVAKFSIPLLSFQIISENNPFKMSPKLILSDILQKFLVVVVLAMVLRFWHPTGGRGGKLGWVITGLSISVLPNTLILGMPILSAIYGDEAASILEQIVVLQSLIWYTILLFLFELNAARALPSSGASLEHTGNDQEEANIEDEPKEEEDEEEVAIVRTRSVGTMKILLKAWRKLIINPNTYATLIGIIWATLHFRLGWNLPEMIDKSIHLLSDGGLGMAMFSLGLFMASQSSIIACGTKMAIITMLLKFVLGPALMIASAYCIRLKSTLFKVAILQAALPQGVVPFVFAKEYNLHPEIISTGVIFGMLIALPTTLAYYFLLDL
# procedure_summary: SSM electrophysiology, KD by inhibition of the NPA binding current
# protocol_conditions: sheet F2A (Fig. 2a, KD of substrate binding); individual sensors; read-out: Peak current
# Lookup of reported pKd keyed by entry
pKd field: float, defined as -log10 of concentration (mol/L).

O=C(O)COc1ccccc1: 3.31

The reported pKd of the compound "O=C(O)COc1cc(Cl)c(Cl)cc1Cl" was 5.05

====

# target_or_test_system: PIN8 S146A (Arabidopsis thaliana, UniProt Q9LFP6, S146A)
# protocol_conditions: PIN8 S146A; Michaelis–Menten fit; read-out: EC50 of peak current response
readout_name: pEC50
Note: pEC50 values are expressed as the negative base-10 logarithm of concentration in M.

O=C(O)COc1ccc(Cl)cc1Cl: 3.79

With those in mind, consider the next compound.
pEC50 measured on "O=C(O)Cc1c[nH]c2ccccc12" = 3.30
